- measurement-target: Vascular endothelial growth factor receptor 2 (Homo sapiens, UniProt P35968)
- Sequence (P35968 whole entry): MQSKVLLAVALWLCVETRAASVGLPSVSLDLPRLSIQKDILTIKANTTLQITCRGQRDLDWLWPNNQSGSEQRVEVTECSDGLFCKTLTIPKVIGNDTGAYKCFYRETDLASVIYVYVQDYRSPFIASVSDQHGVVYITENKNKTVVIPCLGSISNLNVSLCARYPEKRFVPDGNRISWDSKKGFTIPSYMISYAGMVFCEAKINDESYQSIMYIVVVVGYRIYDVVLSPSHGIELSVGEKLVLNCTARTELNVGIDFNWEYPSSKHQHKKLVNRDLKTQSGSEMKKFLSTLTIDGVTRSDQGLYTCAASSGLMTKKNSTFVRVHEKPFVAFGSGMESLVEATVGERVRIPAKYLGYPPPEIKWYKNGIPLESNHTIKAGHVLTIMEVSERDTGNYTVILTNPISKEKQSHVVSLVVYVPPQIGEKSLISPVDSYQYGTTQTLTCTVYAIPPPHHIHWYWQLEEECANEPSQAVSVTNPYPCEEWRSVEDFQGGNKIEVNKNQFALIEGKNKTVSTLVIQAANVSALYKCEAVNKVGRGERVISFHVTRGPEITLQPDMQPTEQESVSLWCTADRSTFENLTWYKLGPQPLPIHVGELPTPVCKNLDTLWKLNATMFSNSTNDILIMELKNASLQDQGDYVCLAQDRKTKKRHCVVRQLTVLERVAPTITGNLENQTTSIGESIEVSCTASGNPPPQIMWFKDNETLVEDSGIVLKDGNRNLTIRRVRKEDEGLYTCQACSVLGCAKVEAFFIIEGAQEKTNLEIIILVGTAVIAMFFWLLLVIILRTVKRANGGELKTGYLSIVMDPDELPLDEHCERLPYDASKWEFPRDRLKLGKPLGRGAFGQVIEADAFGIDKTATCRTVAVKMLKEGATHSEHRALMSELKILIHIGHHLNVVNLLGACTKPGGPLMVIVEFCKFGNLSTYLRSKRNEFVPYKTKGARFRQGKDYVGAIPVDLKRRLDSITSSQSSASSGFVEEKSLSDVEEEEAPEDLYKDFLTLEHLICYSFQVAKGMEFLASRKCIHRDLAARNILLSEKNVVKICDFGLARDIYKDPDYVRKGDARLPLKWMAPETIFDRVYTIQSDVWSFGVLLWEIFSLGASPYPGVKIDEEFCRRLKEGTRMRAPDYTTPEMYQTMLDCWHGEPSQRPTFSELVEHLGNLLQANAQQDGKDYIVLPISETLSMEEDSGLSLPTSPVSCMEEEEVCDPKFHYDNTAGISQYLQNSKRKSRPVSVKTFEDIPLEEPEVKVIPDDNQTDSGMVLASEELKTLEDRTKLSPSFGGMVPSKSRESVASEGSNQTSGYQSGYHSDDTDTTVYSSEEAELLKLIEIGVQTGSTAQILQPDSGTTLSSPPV
- Type: functional, cell-based, NIH3T3
pIC50: −log10 of the molar value.
Parameter threshold = 7. Response is 1 (yes) when pIC50 meets or exceeds it, else 0 (no).

[
  {
    "chemical-smiles": "Nc1nccc2scc(-c3ccc(NC(=O)Nc4cccs4)cc3)c12",
    "measurement-target": "Vascular endothelial growth factor receptor 2 (Homo sapiens, UniProt P35968)",
    "label": "1 (yes)"
  },
  {
    "chemical-smiles": "N#Cc1cccc(NC(=O)Nc2ccc(-c3csc4ccnc(N)c34)cc2)c1",
    "measurement-target": "Vascular endothelial growth factor receptor 2 (Homo sapiens, UniProt P35968)",
    "label": "0 (no)"
  },
  {
    "chemical-smiles": "CCc1cccc(NC(=O)Nc2ccc(-c3csc4ccnc(N)c34)cc2)c1",
    "measurement-target": "Vascular endothelial growth factor receptor 2 (Homo sapiens, UniProt P35968)",
    "label": "1 (yes)"
  },
  {
    "chemical-smiles": "Nc1nccc2scc(-c3ccc(NC(=O)Nc4cccc5ccccc45)cc3)c12",
    "measurement-target": "Vascular endothelial growth factor receptor 2 (Homo sapiens, UniProt P35968)",
    "label": "0 (no)"
  },
  {
    "chemical-smiles": "Cc1cccc(NC(=O)Nc2ccc(-c3csc4c(-c5ccccc5)cnc(N)c34)cc2)c1",
    "measurement-target": "Vascular endothelial growth factor receptor 2 (Homo sapiens, UniProt P35968)",
    "label": "1 (yes)"
  },
  {
    "chemical-smiles": "Cc1ccc(NC(=O)Nc2ccc(-c3csc4ccnc(N)c34)cc2)cc1C",
    "measurement-target": "Vascular endothelial growth factor receptor 2 (Homo sapiens, UniProt P35968)",
    "label": "1 (yes)"
  },
  {
    "chemical-smiles": "Cc1cc(C)cc(NC(=O)Nc2ccc(-c3csc4ccnc(N)c34)cc2)c1",
    "measurement-target": "Vascular endothelial growth factor receptor 2 (Homo sapiens, UniProt P35968)",
    "label": "1 (yes)"
  },
  {
    "chemical-smiles": "CNC(=O)c1cccc(-c2cnc(N)c3c(-c4ccc(NC(=O)Nc5cccc(C)c5)cc4)csc23)c1",
    "measurement-target": "Vascular endothelial growth factor receptor 2 (Homo sapiens, UniProt P35968)",
    "label": "1 (yes)"
  }
]

----------
- measurement-target: UniProt:P35968
- Assay type: functional, cell-based, NIH3T3
Here, each record is paired with measured IC50 data.
assay-metric: IC50 (nM)

[
  {
    "chemical-smiles": "Cc1cccc(NC(=O)Nc2ccc(-c3csc4c(-c5ccc(O)cc5)cnc(N)c34)cc2)c1",
    "assay-metric": "IC50",
    "meas-value": 29
  },
  {
    "chemical-smiles": "Nc1nccc2scc(-c3ccc(NC(=O)Nc4ccc5ccccc5c4)cc3)c12",
    "assay-metric": "IC50",
    "meas-value": 15
  },
  {
    "chemical-smiles": "Cc1ccc(NC(=O)Nc2ccc(-c3csc4ccnc(N)c34)cc2)cc1",
    "assay-metric": "IC50",
    "meas-value": 141
  },
  {
    "chemical-smiles": "Nc1nccc2scc(-c3ccc(NC(=O)Nc4ccsc4)cc3)c12",
    "assay-metric": "IC50",
    "meas-value": 61
  },
  {
    "chemical-smiles": "Cc1cccc(NC(=O)Nc2ccc(-c3csc4c(-c5cncnc5)cnc(N)c34)cc2)c1",
    "assay-metric": "IC50",
    "meas-value": 1
  }
]
